- TGT: Cathepsin V (Homo sapiens (Human))
- Sequence (O60911 114-334, species assumed): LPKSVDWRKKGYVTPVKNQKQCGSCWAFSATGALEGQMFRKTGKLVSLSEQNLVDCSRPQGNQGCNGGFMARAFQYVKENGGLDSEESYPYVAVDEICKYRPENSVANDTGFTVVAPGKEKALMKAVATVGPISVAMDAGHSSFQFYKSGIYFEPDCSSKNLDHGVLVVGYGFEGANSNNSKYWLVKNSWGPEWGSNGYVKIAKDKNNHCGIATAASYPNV
- METHOD_SUMMARY: Cathepsin V IC50
- Format: biochemical
MEASURED_METRIC: IC50
Remember to follow the number with its unit.

compound="COc1ccc(-c2cc(C(=O)N3CC[C@@H]4CN(C#N)C[C@@H]43)on2)cc1 [B]" tgt="Cathepsin V (Homo sapiens (Human))" result="2.3 µM"

Ask: Could you tell me which IC50 is on file for C[C@@H]1[C@H]2CCN(C(=O)c3ncc(-c4ccnc(C#N)c4)o3)[C@H]2CN1C#N (single isomer, unassigned) [Example 1] ?
Reply: 247 µM

Ask: How about this compound: Cc1cc(-c2cccc(C(=O)N3CC[C@@H]4CN(C#N)C[C@@H]43)c2)ccn1 [Reference Example C]
Reply: 18.5 µM

Origin of values: patent US20230312580A1
